- ASSAY_TARGET: Platelet-activating factor acetylhydrolase IB subunit alpha2 (Homo sapiens) (UniProt P68402)
- Sequence (P68402 whole entry, looked up): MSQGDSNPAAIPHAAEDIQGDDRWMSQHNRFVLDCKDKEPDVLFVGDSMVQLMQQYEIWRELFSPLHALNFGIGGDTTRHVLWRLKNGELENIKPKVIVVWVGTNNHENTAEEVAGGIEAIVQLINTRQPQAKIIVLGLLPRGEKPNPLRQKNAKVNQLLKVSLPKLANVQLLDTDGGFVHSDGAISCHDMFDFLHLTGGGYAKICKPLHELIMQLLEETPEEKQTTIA
- EXPERIMENTAL_DETAILS: PAFAH1B2 enzyme inhibitors, primary screen, biochemical, fluorescence polarization, human (AID 492953);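 also: 0% = enzyme with DMSO and 100% = wells lacking PAFAH1B2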
- CONDITION_CONTEXT: recombinant PAFAH1B2, FP-rhodamine activity probe, at 3.39 µM
About 4,200 (1.2%) of roughly 340,000 compounds were called active.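 The calls were made as follows: active = inhibition above the mean of all tested compounds plus 3 SD (cut at about 24% in these data); inactive = the rest.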 The entries come from a sample that favours actives as a whole.
Your answer must be one of the following: active, inactive

CSCc1cc(N2CCOCC2)nc(SCc2ccc(Cl)cc2Cl)n1 | inactive

IN: Entry `O=C(/C=C/c1ccc(Cl)cc1)N1CCN(c2ccccc2[N+](=O)[O-])CC1` : call = ?
OUT: inactive

IN: Would you kindly repeat that for `Cc1cc(Br)ccc1SCC(=O)OCC(=O)NCc1ccc2c(c1)OCO2` ?
OUT: active

====

- ASSAY_TARGET: Platelet-activating factor acetylhydrolase IB subunit alpha2 (Homo sapiens)
- EXPERIMENTAL_DETAILS: PAFAH1B2 enzyme inhibitors, primary screen, biochemical, fluorescence polarization, human (AID 492953);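 also: 0% = enzyme with DMSO and 100% = wells lacking PAFAH1B2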
- CONDITION_CONTEXT: recombinant PAFAH1B2, FP-rhodamine activity probe, at 3.39 µM, hits give high values
Hit rate of the full screen: of about 340,000 compounds, about 4,200 (1.2%) were called active. Many of the other results were omitted from the sample, so actives are more common in it than they were.
PROPERTY_LABEL: inhibition (%)
// return numeric value only (unit: %, not printed)

Cc1ccc(C(=O)O)cc1S(=O)(=O)NCC1CCCO1 (stereo unspecified) | -0.69
Cc1cc(C)cc(NC(=O)C(OC(=O)c2ccc(O)cc2)c2ccccc2)c1 (stereo unspecified) | -4.34
O=C(O)c1cc(S(=O)(=O)N(Cc2ccccc2)c2ccccc2)ccc1Cl | 18.7
O=S1(=O)CCOC[C@H](Cc2ccccc2)N1Cc1ccccc1Br | 4.8
O=S1(=O)CCO[C@H]2Cc3ccccc3[C@H]2N1Cc1ccccc1 | 27.8

IN: Can you look up the measured inhibition of `COc1ccc(OCC(=O)NCCS(=O)(=O)N2CCN(c3ccc(F)cc3)CC2)cc1` for me?
OUT: -1.87

IN: Would you kindly repeat that for `COc1cc(C(=O)NCC(=O)NCCSc2ccc(Br)cc2)cc(OC)c1OC` ?
OUT: 18.7

IN: Would you kindly repeat that for `COc1ccccc1C(=O)NCC(=O)NCCSc1ccc(Br)cc1` ?
OUT: 27.3

IN: Would you kindly repeat that for `CC(=O)NCC(=O)N(Cc1ccco1)C1(C(=O)NC2CCCC2)CCCCC1` ?
OUT: 1.82

IN: Would you kindly repeat that for CCC(C)[C@H]1COCCS(=O)(=O)N1Cc1ccc(C)cc1 (stereo partly specified) ?
OUT: 7.04

IN: Would you kindly repeat that for `Cc1ccc(N(CCC(=O)O)S(=O)(=O)c2cccc(C(F)(F)F)c2)cc1` ?
OUT: 19.6

====

- ASSAY_TARGET: Platelet-activating factor acetylhydrolase IB subunit alpha2 (Homo sapiens)
- EXPERIMENTAL_DETAILS: PAFAH1B2 enzyme inhibitors, primary screen, biochemical, fluorescence polarization, human (AID 492953);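 also: 0% = enzyme with DMSO and 100% = wells lacking PAFAH1B2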
- CONDITION_CONTEXT: recombinant PAFAH1B2, FP-rhodamine activity probe, at 3.39 µM, hits give high values
The campaign covered roughly 340,000 compounds. About 4,200 (1.2%) were called active. This excerpt belongs to a sample that is enriched for actives.
Recorded inhibition values for a group of compounds are listed next.
// return numeric value only (unit: %, not printed)

C/C(=N\Nc1ccc(Cl)nn1)c1ccccc1O | -0.23
O=C(NCCc1ccc(Cl)cc1Cl)c1cc([N+](=O)[O-])c[nH]c1=O | 57
O=C(c1ccc(Cl)c(S(=O)(=O)N2CCCCC2)c1)N1CCCCCC1 | -0.08
O=C(NCCc1c[nH]c2ccc(Cl)cc12)c1ccc([N+](=O)[O-])cc1 | 3.76
CCCCNC(=O)N(O)C1N(/N=C/c2ccccc2O)C(=S)SC1(C)C (stereo not drawn) | 4.39

Continue with the next compound.
IN: // fetch Platelet-activating factor acetylhydrolase IB subunit alpha2 (Homo sapiens) inhibition for `N#Cc1c(-c2ccccc2)nc(SCc2cccc(C(F)(F)F)c2)[nH]c1=O`
OUT: 14.2

Data credit: PubChem BioAssay AID492953
